assay method text: Pharmacokinetic evaluation in cynomolgus monkeys (Test Example 5)
Assay type: in vivo
setup conditions: cynomolgus monkey; nucleoside X28-1 in plasma; male cynomolgus monkeys; single iv 1.0 mg/kg
quantity kind: AUC(0-inf) (ng·h/mL)

compound="O=c1ccn([C@@H]2O[C@](F)(CO)[C@@H](O)[C@H]2O)c(=O)[nH]1 [Compound X28-1, reference compound]" unit_descriptor=ng·h/mL reported_result=3720

---

assay method text: Pharmacokinetic evaluation in rats (Test Example 1)
Assay type: in vivo
setup conditions: rat; nucleoside X28-1 in plasma; male SD rats; single iv 10.0 mg/kg
quantity kind: Cmax (ng/mL)

molecule="O=c1ccn([C@@H]2O[C@](F)(CO)[C@@H](O)[C@H]2O)c(=O)[nH]1 [Compound X28-1, reference compound]" quantity_kind=Cmax reported_result=8080

---

assay method text: Pharmacokinetic evaluation in rats (Test Example 2)
Type: in vivo
setup conditions: rat; nucleoside X28-1 in plasma; male SD rats; single iv 5.0 mg/kg
quantity kind: half-life (h)

compound="O=c1ccn([C@@H]2O[C@](F)(CO)[C@@H](O)[C@H]2O)c(=O)[nH]1 [Compound X28-1, reference compound]" unit_descriptor=h reported_result=6.09

---

Overview of recorded CC50 for various compounds
assay method text: in vitro
setup conditions: dog
quantity kind: CC50

smiles_text=CC(C)(C)C(=O)OC[C@@]1(F)O[C@@H](n2ccc(=O)n(COC(=O)c3cccnc3)c2=O)[C@H](O)[C@@H]1O reported_result="> 10 µM"
smiles_text=CCC(CC)C(=O)OC[C@@]1(F)O[C@@H](n2ccc(=O)n(COC(=O)C(C)C)c2=O)[C@H](O)[C@@H]1O reported_result="> 5 µM"
smiles_text=CC(C)C(=O)OCn1c(=O)ccn([C@@H]2O[C@](F)(COC(=O)C(C)C)[C@H]3OC(=O)O[C@@H]23)c1=O reported_result="> 10 µM"

---

assay method text: Stability test of compounds in solutions at different pH values
setup conditions: buffered saline solution pH 4.0, 18 h
Label true for high-side Content reduction (%) (at or above 5%) and false for low-side Content reduction (%) (below it).

molecule="CCC(CC)C(=O)OCn1c(=O)ccn([C@@H]2O[C@](F)(COC(=O)C(C)C)[C@@H](O)[C@H]2O)c1=O [Compound X52]" answer_label=false
molecule="CC(C)C(=O)OC[C@@]1(F)O[C@@H](n2ccc(=O)n(COC(=O)c3cccnc3)c2=O)[C@H](OC(=O)C(C)C)[C@@H]1OC(=O)C(C)C [Compound X206]" answer_label=false
molecule="CC(C)C(=O)OC[C@@]1(F)O[C@@H](n2ccc(=O)n(COC(=O)C3CCCCC3)c2=O)[C@H](O)[C@@H]1O [Compound X55]" answer_label=true
molecule="CC(=O)OC[C@@]1(F)O[C@@H](n2ccc(=O)n(COC(=O)c3cccnc3)c2=O)[C@H](OC(C)=O)[C@@H]1OC(C)=O.Cl [X219 hydrochloride]" answer_label=false
molecule="CC(C)C(=O)OCn1c(=O)ccn([C@@H]2O[C@](F)(COC(=O)C(C)C)[C@@H](O)[C@H]2O)c1=O [Compound X51]" answer_label=false
molecule="CC(=O)OC[C@@]1(F)O[C@@H](n2ccc(=O)n(COC(=O)c3cccnc3)c2=O)[C@H](OC(C)=O)[C@@H]1OC(C)=O [Compound X219]" answer_label=false
molecule="O=c1ccn([C@@H]2O[C@](F)(CO)[C@@H](O)[C@H]2O)c(=O)[nH]1 [Compound X28-1, reference compound]" answer_label=true
